Data origin, for the record: ChEMBL document CHEMBL3112463

Assay: Antiproliferative activity against human HBL100 cells assessed as growth inhibition after 48 hrs by SRB assay
Format: functional
Details: HBL-100, 48 h
Measured GI50 values are reported for all entries that follow.
READOUT NAME: GI50 (µM)

[[record]]
compound_structure_string = "COC(=O)[C@@]1(C)CCC=C2[C@@H]1CC[C@@H](C)[C@]2(C)Cc1c(C)n(C(c2ccccc2)c2ccccc2)c2ccc(Cl)cc12"
modifier = ">"
reported_value = 100

[[record]]
compound_structure_string = "COC(=O)[C@@]1(C)CC[C@@H]2C3=C1CC[C@@H](C)[C@]3(C)Cc1c2[nH]c2ccc(C)cc12"
modifier = "="
reported_value = 11

[[record]]
compound_structure_string = "COC(=O)[C@@]1(C)CC[C@@H]2C3=C1CC[C@@H](C)[C@]3(C)C[C@@H]1c3cccc(Br)c3N[C@H]21"
modifier = "="
reported_value = 40

[[record]]
compound_structure_string = "COC(=O)[C@@]1(C)CCC=C2[C@@H]1CC[C@@H](C)[C@]2(C)Cc1c[nH]c2c(Br)cccc12"
modifier = "="
reported_value = 18

[[record]]
compound_structure_string = "Cc1c(C[C@]2(C)C3=CCC[C@](C)(C(=O)O)[C@H]3CC[C@H]2C)c2cc(Cl)ccc2n1C(c1ccccc1)c1ccccc1"
modifier = "="
reported_value = 13

[[record]]
compound_structure_string = "COC(=O)[C@@]1(C)CCC=C2[C@@H]1CC[C@@H](C)[C@]2(C)Cc1c(C=O)[nH]c2ccccc12"
modifier = "="
reported_value = 7.5

[[record]]
compound_structure_string = "COC(=O)[C@@]1(C)CCC=C2[C@@H]1CC[C@@H](C)[C@]2(C)Cc1c(/C=C/[N+](=O)[O-])[nH]c2ccccc12"
modifier = "="
reported_value = 16

[[record]]
compound_structure_string = "COC(=O)[C@@]1(C)CC[C@@H]2C3=C1CC[C@@H](C)[C@]3(C)C[C@@H]1c3cc(Br)ccc3N[C@H]21"
modifier = "="
reported_value = 34

[[record]]
compound_structure_string = "COC(=O)[C@@]1(C)CC[C@@H]2C3=C1CC[C@@H](C)[C@]3(C)C[C@@H]1c3cccc(Cl)c3N[C@H]21"
modifier = "="
reported_value = 52

[[record]]
compound_structure_string = "COC(=O)[C@@]1(C)CC[C@@H]2C3=C1CC[C@@H](C)[C@]3(C)C[C@@H]1c3cc(Cl)ccc3N[C@H]21"
modifier = "="
reported_value = 28

[[record]]
compound_structure_string = "COC(=O)[C@@]1(C)CCC=C2[C@@H]1CC[C@@H](C)[C@]2(C)Cc1c(C)[nH]c2ccc(F)cc12"
modifier = "="
reported_value = 14

[[record]]
compound_structure_string = "COC(=O)[C@@]1(C)CCC=C2[C@@H]1CC[C@@H](C)[C@]2(C)Cc1c(C)[nH]c2ccc(OC)cc12"
modifier = "="
reported_value = 16

[[record]]
compound_structure_string = "COC(=O)[C@@]1(C)CC[C@@H]2C3=C1CC[C@@H](C)[C@]3(C)C[C@@H]1c3cc(F)ccc3N[C@H]21"
modifier = "="
reported_value = 18

[[record]]
compound_structure_string = "COC(=O)[C@@]1(C)CCC=C2[C@@H]1CC[C@@H](C)[C@]2(C)Cc1c(C)[nH]c2ccc(C(F)(F)F)cc12"
modifier = "="
reported_value = 16

[[record]]
compound_structure_string = "COC(=O)[C@@]1(C)CCC=C2[C@@H]1CC[C@@H](C)[C@]2(C)Cc1c(C)[nH]c2ccc(Br)cc12"
modifier = "="
reported_value = 15

[[record]]
compound_structure_string = "COC(=O)[C@@]1(C)CCC=C2[C@@H]1CC[C@@H](C)[C@]2(C)Cc1c(C)[nH]c2c(Cl)cccc12"
modifier = "="
reported_value = 22

